Data provenance is paper PMC3918441.

Target: T1, yeast KDM5 PHD finger (S. cerevisiae, Zn2+-bound; 15N-labelled)
T1 chain: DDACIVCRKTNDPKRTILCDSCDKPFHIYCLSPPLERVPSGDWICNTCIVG
Test: NMR titration
pKd: −log10 of the molar value.
value kind: pKd

| binder | experimental value |
| --- | --- |
| ARTKQTARKSTG (peptide, UniProt P68431 2-13, looked up) [H3K4me0 peptide (aa 1-12 of H3)] | 3.93 |
